All figures here come from ChEMBL document CHEMBL3045355.

Measured IC50, listed per entry.
- target-desc: Voltage-gated L-type calcium channel (Rattus norvegicus, UniProt P22002+Q02485+P27732)
- assay-details: Inhibition of L-type calcium channel in neonatal rat cortical neurons assessed as inhibition of veratridine-induced intracellular calcium level incubated for 30 min followed by veratridine induction for 2 min by fluorimetric analysis
- Type: cell-based
// units = µM; emit number, no label

Examples with their reported IC50 follow.
{"columns": ["compound", "IC50 (µM)"],
 "data": [
  ["COC(=O)C1=C(C)NC(C)=C(C(=O)OC)C1c1ccc(OCC(=O)N2CCCCC2)c(OC)c1", 10],
  ["COC(=O)C1=C(C)NC(C)=C(C(=O)OC)C1c1ccc(OCC(=O)NC(C)(C)C)c(OC)c1", 2.5]
]}

We next turn to a different compound, shown below.
Req: Name the reported IC50 value associated with the compound COC(=O)C1=C(C)NC(C)=C(C(=O)OC)C1c1ccc(OCC(=O)N2CCCC(C)C2)c(OC)c1 (stereo not drawn)
Resp: 10
